tested_on: T1, human CD22-Fc fusion protein (human, UniProt P20273 20-687, limits assumed)
T1 construct: also called recombinant CD22-Fc fusion protein; not shown: Fc part
T1 sequence (looked up): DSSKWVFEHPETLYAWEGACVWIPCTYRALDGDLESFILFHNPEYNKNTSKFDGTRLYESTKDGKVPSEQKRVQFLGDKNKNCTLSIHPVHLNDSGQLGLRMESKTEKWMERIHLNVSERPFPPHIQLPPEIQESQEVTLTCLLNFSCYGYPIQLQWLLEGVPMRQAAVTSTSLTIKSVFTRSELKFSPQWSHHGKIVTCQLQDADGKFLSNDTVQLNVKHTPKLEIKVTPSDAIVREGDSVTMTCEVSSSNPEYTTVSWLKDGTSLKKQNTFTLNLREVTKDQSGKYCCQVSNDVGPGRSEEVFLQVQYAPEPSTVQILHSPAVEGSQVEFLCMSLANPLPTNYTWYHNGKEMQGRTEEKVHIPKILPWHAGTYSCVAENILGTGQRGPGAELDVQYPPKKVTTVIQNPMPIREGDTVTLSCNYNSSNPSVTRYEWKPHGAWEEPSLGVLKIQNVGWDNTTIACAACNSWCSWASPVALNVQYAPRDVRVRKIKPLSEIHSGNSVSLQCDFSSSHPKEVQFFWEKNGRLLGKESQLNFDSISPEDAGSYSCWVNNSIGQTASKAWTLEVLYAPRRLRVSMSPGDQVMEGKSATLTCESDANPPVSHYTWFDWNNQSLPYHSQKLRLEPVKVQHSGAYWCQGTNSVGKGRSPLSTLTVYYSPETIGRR
assay_summary: SPR Biacore T200; CD22-Fc captured on Protein G chip, scFv as analyte;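 further: run in 1×HBST buffer, with the response of reference flow cell 1 subtracted from the CD22 capture cell and kinetics fitted in Biacore T200 evaluation software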
Listing: kon of selected binders
Your answer is read as M⁻¹ s⁻¹, so omit the unit and give the number.

INSERT INTO measurements (binder, quantitative_result) VALUES
  ('EP160-G04 scFv (scFv, VH-VL orientation; not shown: C-terminal flag and 6xHIS tag) scFv: QVQLVQSGAEVKKPGASVKVSCKASGYTFSSYGITWVRQAPGQGLEWMGWISAYNGNTNYAQKFQGRVTLTTDTSTSIAYMELRSLTSDDTAVYYCATGGQEDYWGQGTLVTVSSGGGGSGGGGSGGGGSEIVMTQSPATLSVSPGERATLSCRASQSVSSNLAWYQQKPGQAPRLLIYDASTRATGIPARFSGSGSGTEFTLTISSLQSEDFAVYYCQQYHNWAPLTFGGGTKVGIK', 125000),
  ('EP160-H02 scFv (scFv, VH-VL orientation; not shown: C-terminal flag and 6xHIS tag) scFv: QVQLVQSGAEVKKPGASVKVSCKASGYTFTSYGISWVRQAPGQGLEWMGGIIAYNGNTNYAQKLQGRVTMTTDTSTSTAYMELRSLRSDDTAVYYCARDPPEYSSSAGTDYWGQGTLVTVSSGGGGSGGGGSGGGGSEIVMTQSPATLSVSPGEGVTLSCRASQSVSSNLAWYQQRPGQAPRLLIYGASIKATDVPDRFSGGGSGTDFTLSITNLQSEDFAVYYCQQYHTWSPVTFGGGTKVEIK', 60900),
  ('EP97-A10 scFv (scFv, VH-VL orientation; not shown: C-terminal flag and 6xHIS tag) scFv: QVQLVQSGAEVKRPGASVKVSCKASGYTFTSYGISWVRQAPGQGLEWMGWISAYNGNTNYAQKLQGRVTMTTDTSTSTAYMELRSLRSDDTAVYYCARDPGIAVAGTVDYWGQGTLVTVSSGGGGSGGGGSGGGGSEIVMTQSPATLSVSPGEGVTLSCRASQSVSSNLAWYQQRPGQAPRLLIYGASIKATDVPDRFSGGGSGTDFTLSISNVQSEDFAVYYCQQYHTWTPVTFGGGTKVEIK', 40500);

Query binder follows.
Incoming: State the recorded kon for this entry: EP160-F04 scFv (scFv, VH-VL orientation; not shown: C-terminal flag and 6xHIS tag) scFv: EVQLVQSGAEVKKPGASVKVSCKASGYTFTSYGISWVRQAPGQGLEWMGWISAYNGNTNYAQKLQGRVTMTTDTSTSTAYMELRSLKSDDTAVYYCAISIGAFDIWGQGTMVTVSSGGGGSGGGGSGGGGSEIVMTQSPATLSVSPGEEVTLSCRASQSVSSNLAWYQQRPGQAPRLLIYGASIKATDVPDRFSGGGSGTDFTLSISNLQSEDFAVYYCQQYHTWPPVTFGGGTKVEIK
Outgoing: 40500
